- targetDesc: Protein translocase subunit SecA (Escherichia coli (strain K12))
- testProtocol: Assay to Identify E. coli SecA ATPase Inhibitors
- Format: functional
- Design: scale not given: direction of the effect not stated beside the values
- conditionSet: 30 µM
Potency and affinity values are given separately.
Here the recorded Percent Effect is given for each entry.

[
  {
    "compound": "Cc1cc(C)n(CC2CCCN2CCCS(=O)(=O)N(C)C)n1 (stereo not given)",
    "Percent Effect (%)": -1.98
  },
  {
    "compound": "O=C(N1CCCC1)N1CCc2ncnc(C3CCOC3)c2CC1 (stereo not given)",
    "Percent Effect (%)": 2.86
  },
  {
    "compound": "COc1ccc2c(c1)OCC(CNC(=O)c1ccc(=O)n(C)c1)C2 (stereo not given)",
    "Percent Effect (%)": -9.07
  },
  {
    "compound": "Cc1nnc(CN2CCN(CCOc3ccccc3C#N)CC2)n1C",
    "Percent Effect (%)": -5
  },
  {
    "compound": "CCOC(=O)[C@]12CCCN(Cc3nccs3)C[C@H]1CN(CCN(C)C)C2",
    "Percent Effect (%)": -2.1
  },
  {
    "compound": "O=C1[C@@H]2CCN(Cc3ccoc3)C[C@@H]2OCCN1c1ccccc1",
    "Percent Effect (%)": -5.21
  },
  {
    "compound": "CC(C)(C)C(=O)NCCc1ccn(-c2ccccc2)n1",
    "Percent Effect (%)": -5.41
  },
  {
    "compound": "CCn1ccnc1CNCC1CCN(CC(O)c2ccccc2)CC1 (stereo not given)",
    "Percent Effect (%)": -3.91
  },
  {
    "compound": "CC(=O)NCCc1ccc(C(=O)N2CCCC2c2cnn(C)c2)cc1 (stereo not given)",
    "Percent Effect (%)": -1.4
  },
  {
    "compound": "COCC1c2c(cnn2CC2CC2)CCN1Cc1ccc(OC)cc1 (stereo not given)",
    "Percent Effect (%)": 0.566
  }
]

----------
- targetDesc: Ubiquitin-activating enzyme e1, putative (Leishmania donovani (strain BPK282A1))
- testProtocol: Leishmania donovani Ubiquitin Activating Enzyme (LdE1)
- Format: functional
- Set-up: scale not given: direction of the effect not stated beside the values
- conditionSet: 30 µM
Entries with a potency or affinity are not part of this list.
Here the recorded Percent Effect is given for each entry.

[
  {
    "molecule": "CCOc1ccc(Cl)c(C(=O)N2CCN(C(=O)c3ccoc3C)CC2)n1",
    "targetDesc": "Ubiquitin-activating enzyme e1, putative (Leishmania donovani (strain BPK282A1))",
    "Percent Effect, %": 20.8
  },
  {
    "molecule": "O=C(NCCCn1ccnc1)N1CCN(c2cccs2)CC1",
    "targetDesc": "Ubiquitin-activating enzyme e1, putative (Leishmania donovani (strain BPK282A1))",
    "Percent Effect, %": -10.4
  },
  {
    "molecule": "Cc1ccc(C(=O)N2CCCS2(=O)=O)cc1Cl",
    "targetDesc": "Ubiquitin-activating enzyme e1, putative (Leishmania donovani (strain BPK282A1))",
    "Percent Effect, %": 5.33
  },
  {
    "molecule": "Cc1n[nH]c(C)c1NC(=O)CN1CCOC(Cn2cccn2)C1 (configuration not stated)",
    "targetDesc": "Ubiquitin-activating enzyme e1, putative (Leishmania donovani (strain BPK282A1))",
    "Percent Effect, %": 2.6
  },
  {
    "molecule": "O=C(c1ccco1)N1C[C@H]2CCCN(CC3CCOCC3)[C@H]2C1",
    "targetDesc": "Ubiquitin-activating enzyme e1, putative (Leishmania donovani (strain BPK282A1))",
    "Percent Effect, %": 6.49
  },
  {
    "molecule": "CCc1ccc(OCC(O)CN2CCC(O)CC2)cc1 (configuration not stated)",
    "targetDesc": "Ubiquitin-activating enzyme e1, putative (Leishmania donovani (strain BPK282A1))",
    "Percent Effect, %": -2.6
  },
  {
    "molecule": "CC(C)CN1CCC(NC(=O)c2ccc(F)cc2I)CC1",
    "targetDesc": "Ubiquitin-activating enzyme e1, putative (Leishmania donovani (strain BPK282A1))",
    "Percent Effect, %": 23.6
  },
  {
    "molecule": "COc1ccc(F)cc1C(C)NC(=O)c1nnc(C)s1 (configuration not stated)",
    "targetDesc": "Ubiquitin-activating enzyme e1, putative (Leishmania donovani (strain BPK282A1))",
    "Percent Effect, %": -2.7
  },
  {
    "molecule": "CCCc1cc(C(=O)N2CCCC2c2cccnc2)[nH]n1 (configuration not stated)",
    "targetDesc": "Ubiquitin-activating enzyme e1, putative (Leishmania donovani (strain BPK282A1))",
    "Percent Effect, %": 13.5
  },
  {
    "molecule": "CCNC(=O)c1ccc(CNCc2c(C)nn(C)c2N(C)C)cc1",
    "targetDesc": "Ubiquitin-activating enzyme e1, putative (Leishmania donovani (strain BPK282A1))",
    "Percent Effect, %": 21.3
  },
  {
    "molecule": "COc1ccc(CCN2CCCC(Cn3nc(C)nc3C)C2)cc1 (configuration not stated)",
    "targetDesc": "Ubiquitin-activating enzyme e1, putative (Leishmania donovani (strain BPK282A1))",
    "Percent Effect, %": -11.4
  },
  {
    "molecule": "CC(O)CN1CCN(C(=O)CN(C)c2ccc(Cl)cn2)CC1 (configuration not stated)",
    "targetDesc": "Ubiquitin-activating enzyme e1, putative (Leishmania donovani (strain BPK282A1))",
    "Percent Effect, %": -2.7
  }
]

The values you see were collected from ChEMBL document CHEMBL3988442.
